Target: T1, Dimeric human CD48-mFc (human)
T1 chain: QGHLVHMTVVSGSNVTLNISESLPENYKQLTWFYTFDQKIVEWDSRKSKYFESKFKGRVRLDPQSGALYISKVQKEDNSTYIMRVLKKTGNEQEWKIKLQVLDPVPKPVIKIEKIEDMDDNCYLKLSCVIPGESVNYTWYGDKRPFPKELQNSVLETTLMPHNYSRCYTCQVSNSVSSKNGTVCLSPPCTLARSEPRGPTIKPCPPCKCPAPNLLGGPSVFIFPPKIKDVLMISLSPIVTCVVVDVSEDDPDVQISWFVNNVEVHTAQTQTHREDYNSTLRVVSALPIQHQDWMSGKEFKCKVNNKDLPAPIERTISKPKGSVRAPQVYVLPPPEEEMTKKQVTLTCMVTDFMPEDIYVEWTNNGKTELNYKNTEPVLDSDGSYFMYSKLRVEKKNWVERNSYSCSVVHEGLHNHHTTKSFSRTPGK
Assay: SPR (Biacore T100), 25 C, antibody captured by anti-Fc, dimeric CD48-mFc in solution
MEASURE NAME: kon (M⁻¹ s⁻¹)
Number in M⁻¹ s⁻¹, nothing else.

INSERT INTO measurements (binder, value_observed) VALUES
  ('H4H1770P (antibody, human IgG4, V domains shown, Human IgG4 Fc (prefix H4H)) VH: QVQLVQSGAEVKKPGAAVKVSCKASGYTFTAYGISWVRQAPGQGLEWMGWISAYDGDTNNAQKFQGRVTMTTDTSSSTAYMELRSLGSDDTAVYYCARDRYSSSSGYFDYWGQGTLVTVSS VL: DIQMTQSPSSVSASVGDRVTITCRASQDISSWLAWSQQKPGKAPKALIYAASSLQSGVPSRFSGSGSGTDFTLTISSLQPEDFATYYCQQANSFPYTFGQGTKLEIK', '1.71e+06');

Please look at the following binder next.
Task item: Give its kon value. Item: H4H1763N (antibody, human IgG4, V domains shown, Human IgG4 Fc (prefix H4H)) VH: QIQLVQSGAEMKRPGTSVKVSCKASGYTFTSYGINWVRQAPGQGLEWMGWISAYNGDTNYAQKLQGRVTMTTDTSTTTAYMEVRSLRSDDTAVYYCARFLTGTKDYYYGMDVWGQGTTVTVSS VL: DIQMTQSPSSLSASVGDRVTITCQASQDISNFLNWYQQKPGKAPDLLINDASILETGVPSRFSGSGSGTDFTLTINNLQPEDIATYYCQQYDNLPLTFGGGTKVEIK
Reply: 2.05e+06

The reported measurements were obtained from patent US20130230533A1.
